These entries and their values trace back to ChEMBL document CHEMBL1156074.

experiment: Octanol-aqueous buffer partition coefficient, log P at pH 7 by shake-flask method; type: physicochemical
measured-quantity: logD

# chem-smiles, obs-value
measured = [
    ("COC(=O)[C@@H]1NC(=O)[C@H]2NC(=O)[C@H](NC(=O)[C@@H]3NC(=O)[C@H]4NC(=O)[C@H](NC(=O)[C@H](N=[N+]=[N-])c5ccc(O)c(c5)Oc5cc4cc(O)c5C)[C@H](O)c4ccc(cc4)Oc4cc3cc(c4O)Oc3ccc(cc3)[C@H]2O)c2ccc(O)c(c2)-c2c(O)cc(O)cc21", 0.29),
]

---

tested on: Staphylococcus epidermidis; assay: Bactericidal activity against Staphylococcus epidermidis after overnight incubation; type: functional
Lab note - cut at 4 µg/mL for MBC: criterion met if strictly below, criterion not met if not.

# chem-smiles, label
rows = [
    ("CCCCCCCCCCOCc1cn([C@H]2C(=O)N[C@@H]3Cc4ccc(c(Cl)c4)Oc4cc5cc(c4O)Oc4ccc(cc4Cl)[C@@H](O)[C@@H]4NC(=O)[C@H](NC(=O)[C@@H]5NC(=O)[C@@H](NC3=O)c3cc(O)cc(c3)Oc3cc2ccc3O)c2ccc(O)c(c2)-c2c(O)cc(O)cc2[C@H](C(=O)OC)NC4=O)nn1", "criterion not met"),
    ("CCCCCCCCCCOCc1cn([C@H]2C(=O)N[C@@H]3Cc4ccc(c(Cl)c4)Oc4cc5cc(c4O)Oc4ccc(cc4Cl)[C@@H](O[C@@H]4O[C@H](CO)[C@@H](O)[C@H](O)[C@H]4NC(C)=O)[C@@H]4NC(=O)[C@H](NC(=O)[C@@H]5NC(=O)[C@@H](NC3=O)c3cc(O)cc(c3)Oc3cc2ccc3O)c2ccc(O)c(c2)-c2c(O)cc(O)cc2[C@H](C(=O)O)NC4=O)nn1", "criterion met"),
    ("CCCCCCCCCCOCc1cn([C@H]2C(=O)N[C@@H]3Cc4ccc(c(Cl)c4)Oc4cc5cc(c4O)Oc4ccc(cc4Cl)[C@@H](O[C@@H]4O[C@H](CO)[C@@H](O)[C@H](O)[C@H]4NC(C)=O)[C@@H]4NC(=O)[C@H](NC(=O)[C@@H]5NC(=O)[C@@H](NC3=O)c3cc(O)cc(c3)Oc3cc2ccc3O)c2ccc(O)c(c2)-c2c(O)cc(O)cc2[C@H](C(=O)OC)NC4=O)nn1", "criterion met"),
    ("COC(=O)[C@@H]1NC(=O)[C@H]2NC(=O)[C@H](NC(=O)[C@@H]3NC(=O)[C@H]4NC(=O)[C@@H](Cc5ccc(c(Cl)c5)Oc5cc3cc(c5O)Oc3ccc(cc3Cl)[C@H]2O)NC(=O)[C@H](N=[N+]=[N-])c2ccc(O)c(c2)Oc2cc(O)cc4c2)c2ccc(O)c(c2)-c2c(O)cc(O)cc21", "criterion not met"),
]
